Data provenance: PubChem BioAssay (NCI)

System: NCI-H522 lung
Assay: NCI-60 one-dose screen, 48 h
Conditions: 10 µM unless noted
Compounds without any hit were thinned out: in the full panel of roughly 83,000, 20% have a hit. Active and inactive are the calls of the source. The calls were made as follows: active = growth percent below 10; inactive = the rest.
Choose one outcome from this list and give only that: Yes for active, No for inactive

Here's what some known entries look like.
[
  {
    "compound": "C#CC#CC#CC#CC#CC#CC#CC#CC[C@@H]1OC[C@H](COC(=O)O[C@@H](C(=O)O[C@H]2C[C@@]3(O)[C@@H](OC(=O)c4ccccc4)[C@@H]4[C@]5(OC(C)=O)CO[C@@H]5C[C@H](O)[C@@]4(C)C(=O)[C@H](OC(C)=O)C(=C2C)C3(C)C)[C@@H](NC(=O)c2ccccc2)c2ccccc2)O1",
    "measured.target": "NCI-H522 lung",
    "answer.label": "No"
  },
  {
    "compound": "CN(C)CCOc1nc2c3cc([N+](=O)[O-])ccc3nn2c2ccccc12",
    "measured.target": "NCI-H522 lung",
    "answer.label": "No"
  }
]

Tell me the recorded outcome of this test for O=C(NC1CCCCCC1)c1ccc2c(=O)n3c(nc2c1)CCCCC3 .
No

Tell me the recorded outcome of this test for CCC(=C(c1ccc(OCCN(CC)CC)cc1)c1ccc(OCCN(CC)CC)cc1)c1ccc(Cl)cc1 .
Yes

Tell me the recorded outcome of this test for Cc1cc(C(=O)Nc2cc(Nc3ncccc3-c3ncnc4nc[nH]c34)ccc2F)cc(C(C)(C)C#N)c1 .
No

Tell me the recorded outcome of this test for CC1(C)CC(=O)C2=C(C1)OC(C(=O)c1ccccc1)C2c1cccc(Oc2ccccc2)c1 (stereo unspecified) .
No

Tell me the recorded outcome of this test for C=CCNc1nc(O)c(/C=C2\C=Nc3ncccc32)s1 .
Yes

Tell me the recorded outcome of this test for NC(=N\N=C/c1ccc(Cl)cc1Cl)/C(N)=N\N=C/c1ccc(Cl)cc1Cl .
No

Tell me the recorded outcome of this test for Cc1ccc(C23CCC(=O)N2CCc2cncn23)cc1 (stereo unspecified) .
No

Tell me the recorded outcome of this test for COc1cc(C(=O)c2c(-c3ccccc3)oc3ccccc23)cc(OC)c1O .
No

Tell me the recorded outcome of this test for c1ccc2c(-c3cnn4cc(-c5ccc(N6CCNCC6)cc5)cnc34)ccnc2c1 .
Yes

Tell me the recorded outcome of this test for CN(C)CC1C(=O)O[C@H]2[C@H]1CC/C(COC(=O)NCc1ccc(Cn3c(=O)sn(CCCI)c3=O)cc1)=C\CC[C@@]1(C)O[C@@H]21 (stereo partly specified) .
Yes

Tell me the recorded outcome of this test for O=c1c(/C=C/c2c(O)ccc3ccccc23)nnc2sc(-c3cccc([N+](=O)[O-])c3)nn12 .
No
